Target Entity: UniProtKB Q9NP59
Run Description: FPN activity assay: internalization/degradation of ferroportin-GFP in stably transfected HEK293 cells (decrease in GFP fluorescence)
Condition Notes: compound incubated at least 18 hours
Numbered stars: 1 amine (or outer) side, 2 acyl side, 3 side chain; on linkers, the order of the positions; unused ones are H or OH. Bridge positions count the residues as written; N and C are the ends. Square brackets hold non-standard residues; d marks the D form. Side chains are listed from the residue outwards. Peptide text beside a SMILES is read from it. * marks the point of attachment. Dip = N[C@H](C(=O)O)C(c1ccccc1)c1ccccc1; Hag = O=C([C@H](CCC=[*:3])N[*:1])[*:2]; Palmitoyl = CCCCCCCCCCCCCCCC(=O)*; β3hF = N[C@H](CC(=O)O)Cc1ccccc1; Isovaleryl = CC(C)CC(=O)*; Ahx = NCCCCCC(=O)O
Assignment: determine reported IC50 for the given compounds.

Read the entry CCCCCCCCCCCCCCCC(=O)NCCCCCC(=O)NCCCC[C@H](NC(=O)C[C@H](Cc1ccccc1)NC(=O)[C@H]1CCC=CCC[C@H](NC(=O)CC(C)C)C(=O)N[C@@H]([C@@H](C)O)C(=O)N[C@@H](Cc2c[nH]cn2)C(=O)N[C@@H](C(c2ccccc2)c2ccccc2)C(=O)N2CCC[C@H]2C(=O)N[C@@H](C)C(=O)N[C@@H]([C@@H](C)CC)C(=O)N1)C(=O)N[C@H](CCCCN)C(N)=O and write its reported IC50. 10 to 100 nM

Tell us which IC50 value is on record for CCCCCCCCCCCCCCCC(=O)NCCCCCC(=O)NCCCC[C@H](NC(=O)C[C@H](Cc1ccccc1)NC(=O)[C@H]1CCC=CCC[C@@H](NC(=O)CC(C)C)C(=O)N[C@@H]([C@@H](C)O)C(=O)N[C@@H](Cc2c[nH]cn2)C(=O)N[C@@H](C(c2ccccc2)c2ccccc2)C(=O)N2CCC[C@H]2C(=O)N[C@@H](C)C(=O)N[C@@H]([C@@H](C)CC)C(=O)N1)C(=O)N[C@H](CCCCN)C(N)=O 10 to 100 nM

Please list IC50 recorded for the compound CC[C@H](C)[C@@H]1NC(=O)[C@H](C)NC(=O)[C@@H]2CCCN2C(=O)[C@H](C(c2ccccc2)c2ccccc2)NC(=O)[C@H](Cc2c[nH]cn2)NC(=O)[C@H]([C@@H](C)O)NC(=O)[C@@H](NC(=O)CC(C)C)CCC=CCC[C@@H](C(=O)N[C@H](CC(=O)N[C@@H](C)C(=O)N[C@H](CCCCN)C(N)=O)Cc2ccccc2)NC1=O [Compd 47] (Isovaleryl-[Hag]TH[Dip]PAI[Hag][β3hF]A[dK]-NH2; staple 1-8) 10 to 100 nM

Respond only with IC50 recorded for CCCCCCCCCCCCCCCC(=O)NCCCCCC(=O)NCCCC[C@H](NC(=O)C[C@H](Cc1ccccc1)NC(=O)[C@@H](CCCCN)NC(=O)[C@@H](NC(=O)[C@@H]1CCC=CCC[C@H](NC(=O)[C@H](Cc2c[nH]cn2)NC(=O)[C@@H](NC(=O)[C@H](CCC(=O)O)NC(=O)CC(C)C)[C@@H](C)O)C(=O)N2CCC[C@H]2C(=O)N1)[C@@H](C)CC)C(=O)N[C@H](CCCCN)C(N)=O [Compd 5] (Isovaleryl-ETH[Hag]P[Hag]I[dK][β3hF]K([Ahx-Palmitoyl])[dK]-NH2; staple 4-6) > 500 nM

Report IC50, nothing else, for this compound: CCCCCCCCCCCCCCCC(=O)NCCCCCC(=O)NCCCC[C@H](NC(=O)C[C@H](Cc1ccccc1)NC(=O)[C@@H]1CCC=CCC[C@H](NC(=O)CC(C)C)C(=O)N[C@@H](C)C(=O)N[C@@H](Cc2c[nH]cn2)C(=O)N[C@@H](C(c2ccccc2)c2ccccc2)C(=O)N2CCC[C@H]2C(=O)N[C@@H](C)C(=O)N[C@@H]([C@@H](C)CC)C(=O)N1)C(=O)N[C@H](CCCCN)C(N)=O [Compd 41] (Isovaleryl-[Hag]AH[Dip]PAI[Hag][β3hF]K([Ahx-Palmitoyl])[dK]-NH2; staple 1-8) 100 to 500 nM

Give recorded IC50. CCCCCCCCCCCCCCCC(=O)NCCCCCC(=O)NCCCC[C@H](NC(=O)C[C@H](Cc1ccccc1)NC(=O)[C@@H]1CCC=CCC[C@H](NC(=O)CC(C)C)C(=O)N[C@@H]([C@@H](C)O)C(=O)N[C@@H](Cc2c[nH]cn2)C(=O)N[C@@H](C(c2ccccc2)c2ccccc2)C(=O)N2CCC[C@H]2C(=O)N[C@@H](C)C(=O)N[C@@H](C)C(=O)N1)C(=O)N[C@H](CCCCN)C(N)=O [Compd 45] (Isovaleryl-[Hag]TH[Dip]PAA[Hag][β3hF]K([Ahx-Palmitoyl])[dK]-NH2; staple 1-8) 10 to 100 nM

In one line, give reported IC50 of the entry CCCCCCCCCCCCCCCC(=O)NCCCCCC(=O)NCCCC[C@H](NC(=O)[C@H](C)NC(=O)[C@@H]1CCC=CCC[C@H](NC(=O)CC(C)C)C(=O)N[C@@H]([C@@H](C)O)C(=O)N[C@@H](Cc2c[nH]cn2)C(=O)N[C@@H](C(c2ccccc2)c2ccccc2)C(=O)N2CCC[C@H]2C(=O)N[C@@H](C)C(=O)N[C@@H]([C@@H](C)CC)C(=O)N1)C(=O)N[C@H](CCCCN)C(N)=O [Compd 46] (Isovaleryl-[Hag]TH[Dip]PAI[Hag]AK([Ahx-Palmitoyl])[dK]-NH2; staple 1-8) . 100 to 500 nM

State its IC50: CCCCCCCCCCCCCCCC(=O)NCCCCCC(=O)NCCCC[C@H](NC(=O)C[C@H](Cc1ccccc1)NC(=O)[C@@H]1CCC=CCCC[C@H](NC(=O)CC(C)C)C(=O)N[C@@H]([C@@H](C)O)C(=O)N[C@@H](Cc2c[nH]cn2)C(=O)N[C@@H](C(c2ccccc2)c2ccccc2)C(=O)N2CCC[C@H]2C(=O)N[C@@H](C)C(=O)N[C@@H]([C@@H](C)CC)C(=O)N1)C(=O)N[C@H](CCCCN)C(N)=O 1 to 10 nM

* * *

Task for the reader: assign each of the following compounds its reported IC50.
Target Entity: ferroportin (Homo sapiens, UniProt Q9NP59)
Sequence (Q9NP59 whole entry): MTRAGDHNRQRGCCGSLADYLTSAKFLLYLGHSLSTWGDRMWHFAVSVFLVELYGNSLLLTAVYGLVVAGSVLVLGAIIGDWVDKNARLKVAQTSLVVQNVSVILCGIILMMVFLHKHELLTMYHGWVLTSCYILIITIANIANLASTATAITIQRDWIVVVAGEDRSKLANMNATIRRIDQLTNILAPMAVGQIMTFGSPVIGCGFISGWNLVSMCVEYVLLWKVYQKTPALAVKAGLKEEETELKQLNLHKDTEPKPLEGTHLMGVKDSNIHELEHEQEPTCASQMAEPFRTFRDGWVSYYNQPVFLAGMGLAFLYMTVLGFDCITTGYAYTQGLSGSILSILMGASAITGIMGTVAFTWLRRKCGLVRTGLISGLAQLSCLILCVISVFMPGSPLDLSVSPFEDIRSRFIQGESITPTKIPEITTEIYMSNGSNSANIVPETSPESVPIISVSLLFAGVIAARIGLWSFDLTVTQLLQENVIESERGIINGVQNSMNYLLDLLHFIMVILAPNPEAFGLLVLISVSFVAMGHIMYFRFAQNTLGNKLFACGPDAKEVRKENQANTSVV
Run Description: T47D cell-based ferroportin internalization assay in presence of 0.5% mouse serum albumin (MSA)
Condition Notes: T47D cells
Numbered stars: 1 amine (or outer) side, 2 acyl side, 3 side chain; on linkers, the order of the positions; unused ones are H or OH. Bridge positions count the residues as written; N and C are the ends. Square brackets hold non-standard residues; d marks the D form. Side chains are listed from the residue outwards. Peptide text beside a SMILES is read from it. * marks the point of attachment. Dip = N[C@H](C(=O)O)C(c1ccccc1)c1ccccc1; Hag = O=C([C@H](CCC=[*:3])N[*:1])[*:2]; Palmitoyl = CCCCCCCCCCCCCCCC(=O)*; β3hF = N[C@H](CC(=O)O)Cc1ccccc1; Isovaleryl = CC(C)CC(=O)*; Ahx = NCCCCCC(=O)O

Consider the compound CCCCCCCCCCCCCCCC(=O)NCCCCCC(=O)NCCCC[C@H](NC(=O)[C@H](C)NC(=O)[C@@H]1CCC=CCC[C@H](NC(=O)CC(C)C)C(=O)N[C@@H]([C@@H](C)O)C(=O)N[C@@H](Cc2c[nH]cn2)C(=O)N[C@@H](C(c2ccccc2)c2ccccc2)C(=O)N2CCC[C@H]2C(=O)N[C@@H](C)C(=O)N[C@@H]([C@@H](C)CC)C(=O)N1)C(=O)N[C@H](CCCCN)C(N)=O [Compd 46] (Isovaleryl-[Hag]TH[Dip]PAI[Hag]AK([Ahx-Palmitoyl])[dK]-NH2; staple 1-8) . State its measured IC50. 100 to 500 nM

Answer with the recorded IC50 for the compound listed here: CCCCCCCCCCCCCCCC(=O)NCCCCCC(=O)NCCCC[C@H](NC(=O)C[C@H](Cc1ccccc1)NC(=O)[C@@H]1CCC=CCC[C@H](NC(=O)CC(C)C)C(=O)N[C@@H]([C@@H](C)O)C(=O)N[C@@H](Cc2c[nH]cn2)C(=O)N[C@@H](C(c2ccccc2)c2ccccc2)C(=O)N2CCC[C@H]2C(=O)N[C@@H](C)C(=O)N[C@@H]([C@@H](C)CC)C(=O)N1)C(N)=O 1 to 10 nM

Give recorded IC50. CCCCCCCCCCCCCCCC(=O)NCCCCCC(=O)NCCCC[C@H](NC(=O)C[C@H](Cc1ccccc1)NC(=O)[C@@H]1CCC=CCC[C@H](NC(=O)CC(C)C)C(=O)N[C@@H]([C@@H](C)O)C(=O)N[C@@H](C)C(=O)N[C@@H](C(c2ccccc2)c2ccccc2)C(=O)N2CCC[C@H]2C(=O)N[C@@H](C)C(=O)N[C@@H]([C@@H](C)CC)C(=O)N1)C(=O)N[C@H](CCCCN)C(N)=O [Compd 42] (Isovaleryl-[Hag]TA[Dip]PAI[Hag][β3hF]K([Ahx-Palmitoyl])[dK]-NH2; staple 1-8) 100 to 500 nM
